Consider the following compounds and their measured cytotoxicity at 70.5 h readings.
# testDescription: Human HepG2 cell viability assay in 384 well format
# Type: toxicity, cell-based
# Set-up: dose 125 nL, time 70.5 hour; concentration not given beside the values
# reportedConditions: HepG2 cells, read-out: Inhibition
Quick reminder: number only, in %, skip the unit.

Field: example entries. Status: answers known.
compound: O=C1N(Cc2cccc(F)c2F)CCCC1(O)CNCc1ccccc1 (stereo not drawn)
cytotoxicity at 70.5 h (%): 19.6
//
compound: O=C(NCC1Cn2nnc(-c3ccoc3)c2CO1)c1ccc[nH]1 (stereo not drawn)
cytotoxicity at 70.5 h (%): -9.78

Write down cytotoxicity at 70.5 h measured for item O=c1[nH]nc(CNc2ncc(Cl)cn2)[nH]1
28.8

====

# testDescription: Human HepG2 cell viability assay in 384 well format
# Format: toxicity, cell-based
# Parameters: dose 125 nL, time 70.5 hour; concentration not given beside the values
# reportedConditions: HepG2 cells, read-out: Inhibition
outcomeMeasure: cytotoxicity at 70.5 h (%)
Answer with a number only, understood to be in %.

Consider the worked cases shown below.
compound: Cc1ccc(-c2noc(CC[C@@H]3CCCN4CCCC[C@H]34)n2)nn1
cytotoxicity at 70.5 h [%]: -3.37
--
compound: CS(=O)(=O)N1CC(c2nc[nH]n2)c2cc(C(=O)NC3CC3)ccc21 (stereo not given)
cytotoxicity at 70.5 h [%]: -3.52
--
compound: CC(C)Nc1ncnc2c1CCN(Cc1ccoc1)CC2
cytotoxicity at 70.5 h [%]: -12.6

Return the recorded cytotoxicity at 70.5 h value; entry: O=C1[C@@H]2CCN(CC3CC3)C[C@@H]2OCCN1c1cccnc1
6.28

Note down cytotoxicity at 70.5 h recorded for Cc1cnc(CN2CCCC2c2noc(C3CC3)n2)cn1 (stereo not given)
-6.3

====

# testDescription: Human HepG2 cell viability assay in 384 well format
# Type: toxicity, cell-based
# Parameters: dose 125 nL, time 70.5 hour; concentration not given beside the values
# reportedConditions: HepG2 cells, read-out: Inhibition
outcomeMeasure: cytotoxicity at 70.5 h (%)
Give the quantity in %, number only.

compound: O=C(c1cccnc1-n1cncn1)N1CCC(Nc2ccccc2)CC1
unitsOfMeasure: %
cytotoxicity at 70.5 h: -0.978
//
compound: O=S(=O)(NCCCn1cncn1)c1ccc2c(c1)CCCC2
unitsOfMeasure: %
cytotoxicity at 70.5 h: -5.74

Return the recorded cytotoxicity at 70.5 h value; entry: CN(CC(=O)N1CCCC1)C(=O)c1cccn1CCc1ccccc1
-7.1

For the compound CCn1cc(CCC(=O)NCc2csc(C3CC3)n2)c(C)n1 , give its measured cytotoxicity at 70.5 h value.
-11.7

Provide cytotoxicity at 70.5 h value for the following compound: CCCn1c(C)cc(C(=O)CN2C(=O)c3ccccc3CS2(=O)=O)c1C
-10.8

Answer with reported cytotoxicity at 70.5 h of CC(NC(=O)NCC1(c2ccc(F)cc2)CC1)c1nncn1C (stereo unspecified)
-1.68

Using known records, supply cytotoxicity at 70.5 h for CC(C)[C@@H]1CN(Cc2ccccc2C#N)C[C@H]1N(C)C
31.1

# return recorded cytotoxicity at 70.5 h for entry Cc1cc(C)n(C2CN(CC(=O)NC3CCS(=O)(=O)C3)C2)n1 (stereo unspecified)
-9.43

Output measured cytotoxicity at 70.5 h for this item: CCn1ccc(C(=O)N2CCCC2c2nnc(-c3scnc3C)o2)n1 (stereo unspecified)
-6.79

Supply measured cytotoxicity at 70.5 h of Cc1occc1C(=O)N1CCC2(CCN(C(=O)c3cccnc3)C2)CC1 in your reply.
5.51

Supply cytotoxicity at 70.5 h value. Item: CCc1nc(C2CCCN(C(=O)C(C)(C)NS(C)(=O)=O)C2)no1 (stereo unspecified)
0.741

For the compound Cc1cnc(CN2CCN(C(C)c3nc(C(C)C)no3)CC2)cn1 (stereo unspecified) , give its reported cytotoxicity at 70.5 h.
-6.56

The measurements presented in this section are drawn from ChEMBL document CHEMBL3507680.
